Answer each item with its documented Dmax.
Molecular target: IRAK4 protein (Homo sapiens)
Sequence (Q9NWZ3 whole entry): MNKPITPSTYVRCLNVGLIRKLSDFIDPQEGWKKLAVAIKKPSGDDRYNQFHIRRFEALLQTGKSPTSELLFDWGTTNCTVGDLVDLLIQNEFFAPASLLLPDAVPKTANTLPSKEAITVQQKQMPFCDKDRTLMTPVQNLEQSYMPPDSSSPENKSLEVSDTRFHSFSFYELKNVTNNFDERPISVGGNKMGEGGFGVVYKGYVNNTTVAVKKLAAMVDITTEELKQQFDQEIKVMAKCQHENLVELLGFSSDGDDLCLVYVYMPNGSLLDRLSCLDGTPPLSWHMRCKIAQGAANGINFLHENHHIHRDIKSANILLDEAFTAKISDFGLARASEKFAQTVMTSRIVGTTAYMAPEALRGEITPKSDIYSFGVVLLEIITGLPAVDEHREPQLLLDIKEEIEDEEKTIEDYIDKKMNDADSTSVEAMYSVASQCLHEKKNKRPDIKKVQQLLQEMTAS
Experiment: IRAK4 Degradation Assay in THP-1 Cells (Western Blot)
Format: cell-based
Parameters: endogenous in cells; host or cells: THP-1 cells
Settings: THP-1, THP-1 cells, 24 hours, 0.0128 to 1000 nM, IRAK4 protein level by Western Blot; read-out: Dmax%

Item: O=C1CCC(N2C(=O)c3cc(F)c(N4CCC(CN5CCC6(CC5)Cc5cc(NC(=O)c7cnn8cccnc78)c(N7CCC(CO)CC7)cc5O6)CC4)cc3C2=O)C(=O)N1 (stereo not shown) | System: IRAK4 protein (Homo sapiens) | Dmax: 87.9%

Item: COC1(CN2CCC3(CC2)Cc2cc(NC(=O)c4cnn5cccnc45)c(N4CCC(CO)CC4)cc2O3)CCN(c2cccc3c2n(C)c(=O)n3C2CCC(=O)NC2=O)CC1 (stereo not shown) | System: IRAK4 protein (Homo sapiens) | Dmax: 89.5%

Item: Cn1c(=O)n(C2CCC(=O)NC2=O)c2cccc(C#CCO[C@H]3CC[C@@H](CN4CCC5(CC4)Cc4cc(NC(=O)c6cnn7cccnc67)c(N6CCC(CO)CC6)cc4O5)CC3)c21 (relative stereo) | System: IRAK4 protein (Homo sapiens) | Dmax: 89.3%

Item: O=C1CCC(N2Cc3cc(N4CCC(CN5CCC6(CC5)Cc5cc(NC(=O)c7cnn8cccnc78)c(N7CCC(CO)CC7)cc5O6)CC4)ccc3C2=O)C(=O)N1 (single isomer, unassigned) | System: IRAK4 protein (Homo sapiens) | Dmax: 88.3%

Item: Cn1c(=O)n(C2CCC(=O)NC2=O)c2cccc(C#CCOCCNCCN3CCC4(CC3)Cc3cc(NC(=O)c5cnn6cccnc56)c(N5CCC(CO)CC5)cc3O4)c21 (stereo not shown) | System: IRAK4 protein (Homo sapiens) | Dmax: 88.6%

Item: Cn1c(=O)n(C2CCC(=O)NC2=O)c2cccc(C#CCO[C@H]3CC[C@H](CN4CCC5(CC4)Cc4cc(NC(=O)c6cnn7cccnc67)c(N6CCC(CO)CC6)cc4O5)CC3)c21 (relative stereo) | System: IRAK4 protein (Homo sapiens) | Dmax: 90.6%

Item: Cn1c(=O)n(C2CCC(=O)NC2=O)c2cccc(N3CCC(CCN4CCC5(CC4)Cc4cc(NC(=O)c6cnn7cccnc67)c(N6CCC(CO)CC6)cc4O5)CC3)c21 (stereo not shown) | System: IRAK4 protein (Homo sapiens) | Dmax: 92%

Item: Cn1c(=O)n(C2CCC(=O)NC2=O)c2cccc(C3CCC(CN4CCC5(CC4)Cc4cc(NC(=O)c6cnn7cccnc67)c(N6CCC(CO)CC6)cc4O5)CC3)c21 (stereo not shown) | System: IRAK4 protein (Homo sapiens) | Dmax: 88.6%

Item: Cn1c(=O)n(C2CCC(=O)NC2=O)c2cccc(CN3CCC(CCN4CCC5(CC4)Cc4cc(NC(=O)c6cnn7cccnc67)c(N6CCC(CO)CC6)cc4O5)CC3)c21 (stereo not shown) | System: IRAK4 protein (Homo sapiens) | Dmax: 91.9%

Item: Cn1c(=O)n(C2CCC(=O)NC2=O)c2cccc(N3CCC(O)(CC(=O)N4CCC5(CC4)Cc4cc(NC(=O)c6cnn7cccnc67)c(N6CCC(CO)CC6)cc4O5)CC3)c21 (stereo not shown) | System: IRAK4 protein (Homo sapiens) | Dmax: 90.2%

Item: O=C1CCC(N2C(=O)c3cc(F)c(N4CCC(CCN5CCC6(CC5)Cc5cc(NC(=O)c7cnn8cccnc78)c(N7CCC(CO)CC7)cc5O6)CC4)cc3C2=O)C(=O)N1 (stereo not shown) | System: IRAK4 protein (Homo sapiens) | Dmax: 92.6%

Item: Cn1c(=O)n(C2CCC(=O)NC2=O)c2cccc(C#CCOC3CCN(CCN4CCC5(CC4)Cc4cc(NC(=O)c6cnn7cccnc67)c(N6CCC(CO)CC6)cc4O5)CC3)c21 (stereo not shown) | System: IRAK4 protein (Homo sapiens) | Dmax: 87.9%

Item: O=C1CCC(N2Cc3c(CN4CCC(CCN5CCC6(CC5)Cc5cc(NC(=O)c7cnn8cccnc78)c(N7CCC(CO)CC7)cc5O6)CC4)cccc3C2=O)C(=O)N1 (stereo not shown) | System: IRAK4 protein (Homo sapiens) | Dmax: 89.3%
